# SUBJECT OF TEST: Mitogen-activated protein kinase kinase kinase 12 (Homo sapiens, UniProt Q12852)
# Sequence (Q12852 whole entry): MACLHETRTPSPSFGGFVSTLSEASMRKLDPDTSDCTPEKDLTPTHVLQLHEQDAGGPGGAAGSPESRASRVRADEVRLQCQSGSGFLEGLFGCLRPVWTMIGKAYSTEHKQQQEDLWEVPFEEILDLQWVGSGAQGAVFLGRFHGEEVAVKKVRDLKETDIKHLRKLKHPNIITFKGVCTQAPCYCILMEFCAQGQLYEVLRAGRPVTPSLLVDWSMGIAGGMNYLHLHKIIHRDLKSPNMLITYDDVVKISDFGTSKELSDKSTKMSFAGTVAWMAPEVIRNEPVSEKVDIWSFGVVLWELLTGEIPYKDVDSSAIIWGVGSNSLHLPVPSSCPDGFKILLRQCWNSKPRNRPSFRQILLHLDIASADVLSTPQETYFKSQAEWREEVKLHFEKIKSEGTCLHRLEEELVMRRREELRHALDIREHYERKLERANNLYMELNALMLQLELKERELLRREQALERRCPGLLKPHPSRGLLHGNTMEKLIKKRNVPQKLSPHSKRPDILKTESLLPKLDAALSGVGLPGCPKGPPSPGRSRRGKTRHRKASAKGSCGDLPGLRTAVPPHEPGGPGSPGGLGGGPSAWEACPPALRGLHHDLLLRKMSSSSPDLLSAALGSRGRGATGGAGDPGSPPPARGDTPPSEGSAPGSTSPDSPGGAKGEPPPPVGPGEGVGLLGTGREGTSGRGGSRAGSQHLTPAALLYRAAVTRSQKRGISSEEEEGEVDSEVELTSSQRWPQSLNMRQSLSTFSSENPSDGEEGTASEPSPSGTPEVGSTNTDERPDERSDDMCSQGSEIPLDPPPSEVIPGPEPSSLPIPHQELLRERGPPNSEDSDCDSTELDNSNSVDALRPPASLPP
# ASSAY METHOD TEXT: DLK Biochemical Assay
MEASUREMENT TYPE: IC50 (nM)
Give the number; nM is assumed, so skip it.

So for COC[C@H](NC(=O)c1cc(-c2cc(C(=O)NC(C)C)n3nc(N)nc3c2)cs1)c1ccccc1 [US20230382904, Compound 155] , the logged IC50 turned out to be 4.3
